- System under test: human SCD5 (Homo sapiens, UniProt Q86SK9)
- Sequence (Q86SK9 1-330): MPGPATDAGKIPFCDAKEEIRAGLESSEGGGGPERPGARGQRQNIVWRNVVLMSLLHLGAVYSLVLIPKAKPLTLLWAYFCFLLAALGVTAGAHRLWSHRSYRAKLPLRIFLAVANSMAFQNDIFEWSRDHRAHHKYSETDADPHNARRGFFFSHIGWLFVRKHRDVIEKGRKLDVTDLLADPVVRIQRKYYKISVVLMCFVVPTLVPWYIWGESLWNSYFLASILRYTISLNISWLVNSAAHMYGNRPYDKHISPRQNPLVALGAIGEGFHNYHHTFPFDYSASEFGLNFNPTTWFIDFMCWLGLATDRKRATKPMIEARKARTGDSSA
- Procedure summary: Yeast growth assay, strain expressing human SCD5 as the sole desaturase (reduced growth as surrogate for SCD inhibition)
- Details: growth (OD600) after 40 h at 30° C.
pIC50: −log10 of the molar value.
Observed property: pIC50

a = Cc1ccc(Cc2ccc(C(=O)Nc3ccc(=O)n(C)n3)nc2)cc1C [Compound 312]
b = CC1(C)CN(C(=O)c2cccc(Cc3ccc(F)cc3)n2)CCO1 [Compound 339]
c = Cn1cc(C(=O)Nc2ccc(COc3cccc(Cl)c3)cn2)ccc1=O [Compound 263]
d = Cn1cc(C(=O)Nc2ccc(Cc3ccc(F)c(F)c3)cn2)ncc1=O [Compound 673]
Exercise: Rank the 4 molecules shown above by pIC50, smallest number first. Form entry: labels listed in requested order.
Solution: b, d, c, a

* * *

- System under test: human SCD1 (Homo sapiens, UniProt O00767)
- Sequence (O00767 1-359): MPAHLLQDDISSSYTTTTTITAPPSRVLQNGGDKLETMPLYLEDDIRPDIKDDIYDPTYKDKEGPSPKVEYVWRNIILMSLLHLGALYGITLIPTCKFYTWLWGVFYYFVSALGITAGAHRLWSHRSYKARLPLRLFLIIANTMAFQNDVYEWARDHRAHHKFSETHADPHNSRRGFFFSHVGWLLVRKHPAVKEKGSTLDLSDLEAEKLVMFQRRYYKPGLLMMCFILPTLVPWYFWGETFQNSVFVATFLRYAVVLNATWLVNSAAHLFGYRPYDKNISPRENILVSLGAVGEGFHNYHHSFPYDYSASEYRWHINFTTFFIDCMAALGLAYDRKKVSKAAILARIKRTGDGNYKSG
- Procedure summary: Yeast growth assay, strain expressing human SCD1 as the sole desaturase (reduced growth as surrogate for SCD inhibition)
- Details: growth (OD600) after 40 h at 30° C.
# key: entry, value: IC50

Below are worked cases with known answers.
| Smiles data | IC50 |
| --- | --- |
| CN1N=C(c2nc3cc(Cc4cccc(Cl)c4)cnc3[nH]2)CCC1=O | > 45 µM |
| O=C(Nc1ccc(Cc2cccc(F)c2)cn1)c1cc[nH]c(=O)n1 | > 45 µM |

Short answer for "O=C(Nc1ccc(Cc2cccc(F)c2)cn1)c1cnc2[nH]c(=O)oc2c1" : IC50 was > 45 µM

Short answer for "CC1(C)CN(C(=O)c2cccc(Cc3ccc(F)cc3)n2)CCO1" : IC50 was > 45 µM

Short answer for "CN1N=C(C(=O)Nc2ncc(Cc3cccc(F)c3)s2)CCC1=O" : IC50 was > 45 µM

Short answer for "Cc1ccc(Cc2ccc(C(=O)Nc3ccc(=O)n(C)n3)nc2)cc1C" : IC50 was 1.82 µM

Short answer for "Cn1cc(C(=O)Nc2ccc(Cc3ccc(F)c(F)c3)cn2)ncc1=O" : IC50 was 3.1 µM
